# TEST DETAILS: chemical genetic growth profiling, strain panel (AID 1159580);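 note: tested at 20 µM; growth read once vehicle control cultures reached saturation at 30 °C; 1 = growth at the plate median or of vehicle wells; lower values mean less growth of the strain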
# CONDITIONS: S. cerevisiae deletion strains, growth OD, locus YLR113W, strain HOG1, active compounds read low
About 2,000 (36%) of roughly 5,500 compounds were called active. Another 18% or so got no clear call; they are omitted. The list shows a part of the results.
A collection of compounds and their measured normalized growth
Answer field: number only, no words.

CC(C)Nc1nc(Cl)nc(NC(C)C)n1: 1
Oc1ccc([C@H]2Oc3cc(O)cc(O)c3C[C@H]2O)cc1: 0.977
Cc1ccc(Sc2ncccc2NS(=O)(=O)c2ccc(Cl)cc2)cc1: 0.809

// query Any idea what normalized growth was measured for C[C@@H]1CCC2[C@](C)(CO)[C@@H](O)CC[C@]2(C)[C@@]12CC[C@@](CO)(CCO)O2 (stereo not given in full) ?
// result 0.991

// query Here is the next compound: "CCn1nc(C)cc1C(=O)Sc1cccc(Br)c1"
// result 0.461

// query # repeat for COC1=CC(C)[C@@H]2C[C@H]3OC(=O)C[C@H]4C(C)=C(OC)C(=O)C([C@@]34C)[C@@]2(C)C1=O (stereo not given in full)
// result 1.03

// query Same for "CCn1nc(C(=O)O)c(=O)c2cc3c(cc21)OCO3"
// result 1

// query Ok, now "COc1nc(NC(C)C)nc(NC(C)C)n1"
// result 0.986

// query What about this compound? "O=c1c(O)cc([C@H]2Oc3cc(O)cc(O)c3C[C@H]2O)cc2c([C@H]3Oc4cc(O)cc(O)c4C[C@H]3O)cc(O)c(O)c12"
// result 1.03

// query How about this compound: "CSc1nc(NC(C)C)nc(NC(C)C)n1"
// result 0.993

====

# TEST DETAILS: chemical genetic growth profiling, strain panel (AID 1159580)
# CONDITIONS: S. cerevisiae deletion strains, growth OD, locus YDL035C, strain GPR1, active compounds read low
Screen size: about 5,500 compounds; about 2,000 (36%) were called active. Not shown: some 18% with an inconclusive outcome. This is one part of the list.
normalized growth listing for selected molecules.
Answer with the value's number alone.

CCn1nc(C(=O)O)c(=O)c2cc3c(cc21)OCO3: 1

// query Item CC[C@H]1CN2CCC1C[C@@H]2[C@@H](O)c1ccnc2ccc(OC)cc12 (stereo partly drawn) has what recorded normalized growth?
// result 0.995

// query For "CNC[C@H](O)c1cccc(O)c1" then?
// result 1.01

====

# TEST DETAILS: chemical genetic growth profiling, strain panel (AID 1159580)
# CONDITIONS: S. cerevisiae deletion strains, growth OD, locus YJR066W, strain TOR1
Out of some 5,500 compounds screened, about 2,000 (36%) were called active. Inconclusive results (about 18%) are left out. No stated cut-off is given here; in the data, active means normalized growth mostly below about 0.91 (no sharp cut-off); inconclusive means no clear call, values can overlap the other calls; inactive means mostly above about 0.92. The list shows a part of the results.
Write down the outcome that applies. Available outcomes: class 1 (active), class 0 (inactive)

The following molecules have reported results that may help.
CC(C)c1cccc(O)c(=O)c1: class 1
CCCCC(=O)O[C@]1(C(=O)CO)[C@@H](C)CC2C3CCC4=CC(=O)C=C[C@]4(C)[C@@]3(F)C(O)C[C@@]21C (some centres undefined): class 0
COc1ccc(-c2cc(=O)c3c(O)cc(O)cc3o2)cc1: class 1
Cc1ccccc1N1C(=O)c2cc(S(N)(=O)=O)c(Cl)cc2NC1C (centres undefined): class 0
CC[C@@]1(O)C(=O)OCc2c1cc1n(c2=O)Cc2cc3ccccc3nc2-1: class 1
NC(=O)C1(N2CCCCC2)CCN(CCCC(=O)c2ccc(F)cc2)CC1: class 0
C/C(=N/NC(N)=S)c1csc(-c2ccccc2)n1: class 0
COC(=O)C(c1ccccc1)C1CCCCN1 (centres undefined): class 0

// query For "CC1=CC(=O)C(C(C)C)=CC1=O" , which call appears in the assay record?
// result class 0

// query How about this molecule: COCCCOc1ccnc(CS(=O)c2nc3ccccc3[nH]2)c1C (centres undefined)
// result class 0

// query Then what about the molecule CC(C)(C)NCC(O)COc1cccc2c1C[C@H](O)[C@H](O)C2 (some centres undefined) ?
// result class 0

// query Query NCC(O)CC(=O)O (centres undefined) next
// result class 0

// query Let us now turn to "O=C(CCCN1CCC(O)(c2ccc(Cl)cc2)CC1)c1ccc(F)cc1"
// result class 0

// query Consider next the molecule "OC1(c2ccc(Cl)c(C(F)(F)F)c2)CCN(CCCC(c2ccc(F)cc2)c2ccc(F)cc2)CC1" in the same way.
// result class 0

// query And what about the molecule OC(COCc1ccccc1)Cn1c2ccccc2c2ccccc21 (centres undefined) ?
// result class 0

// query What would you report for "O=C(CCCN1CCC(O)(c2ccc(Br)cc2)CC1)c1ccc(F)cc1" ?
// result class 0

// query What about "CC(C)Nc1nc(Cl)nc(NC(C)C)n1" ?
// result class 0

// query Same read-out for CC1(C)S[C@@H]2[C@H](NC(=O)C(C(=O)O)c3ccccc3)C(=O)N2[C@H]1C(=O)O (some centres undefined) ?
// result class 0

// query How about CC(=O)N1CCN(c2ccc(OCC3CO[C@](Cn4ccnc4)(c4ccc(Cl)cc4Cl)O3)cc2)CC1 (some centres undefined) ?
// result class 1

// query Try this molecule too: "Cc1ccc(OS(=O)(=O)c2c(Cl)sc(Cl)c2Br)c([N+](=O)[O-])n1"
// result class 0

// query What do you get for CCC(=O)OCC(=O)[C@@]1(OC(=O)CC)[C@@H](C)CC2C3CCC4=CC(=O)C=C[C@]4(C)C3(F)[C@@H](O)C[C@@]21C (some centres undefined) ?
// result class 0

// query Now try "O=C(Nc1ccc(SC(F)(F)F)cc1)Nc1ccc(Oc2cccc(C(F)(F)F)c2)nc1" .
// result class 0

// query What would you report for "O=C(CCCN1CCN(c2ccccn2)CC1)c1ccc(F)cc1" ?
// result class 0

// query Now this one: "NCCCN"
// result class 0

// query Subsequent entry: "CCC(=O)NCC[C@@H]1CCc2ccc3c(c21)CCO3"
// result class 0

====

Below is a list of entries, each paired with its recorded normalized growth value.
# TEST DETAILS: chemical genetic growth profiling, strain panel (AID 1159580);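 note: tested at 20 µM; growth read once vehicle control cultures reached saturation at 30 °C; 1 = growth at the plate median or of vehicle wells; lower values mean less growth of the strain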
# CONDITIONS: S. cerevisiae deletion strains, growth OD, locus YKL101W, strain HSL1, active compounds read low
Hit rate of the full screen: of about 5,500 compounds, about 2,000 (36%) were called active. About 18% were inconclusive and are not listed. The list shows a part of the results.
Number only, please.

Some solved entries appear below for comparison.
O=C1OC(c2ccccc2)=C/C1=C/c1ccccc1: 0.797
N#Cc1nccnc1N1CCN(C(=O)Nc2cc(Cl)cc(Cl)c2)CC1: 0.938
O=S(=O)(Nc1ccccc1Sc1c(Cl)cncc1Cl)c1ccc(Cl)cc1: 0.958
OC(COCc1ccccc1)Cn1c2ccccc2c2ccccc21 (configuration not stated): 0.891
O=C(Nc1ccccc1C(=O)O)OCC1c2ccccc2-c2ccccc21: 0.72

// query Form field: reported normalized growth of "O=C(O/N=C1/CCCc2[nH]c3ccccc3c21)C1CCCCC1"
// result 0.878

// query Also need "COc1ccc(N=C2SCC(c3ccc(C)cc3)=NN2CCO)cc1" , thanks.
// result 0.976

====

# TEST DETAILS: chemical genetic growth profiling, strain panel (AID 1159580);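 note: tested at 20 µM; growth read once vehicle control cultures reached saturation at 30 °C; 1 = growth at the plate median or of vehicle wells; lower values mean less growth of the strain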
# CONDITIONS: S. cerevisiae deletion strains, growth OD, locus YHR079C, strain IRE1 (second series), active compounds read low
About 2,000 (36%) of roughly 5,500 compounds were called active. Roughly 18% stayed inconclusive and do not appear here. Some of the results follow.
PARAMETER: normalized growth
Keep the answer to the number alone.

Solved cases (2 shown):
CC(=O)N1CCN(c2ccc(OCC3CO[C@](Cn4ccnc4)(c4ccc(Cl)cc4Cl)O3)cc2)CC1 (some centres undefined): 0.0993
CSCCC(N)C(=O)NC(CC(C)C)C(=O)NC(Cc1ccccc1)C(=O)O (centres undefined): 0.988

// query Could you tell me which normalized growth is on file for COC(=O)C[C@H]1C(C)(C)[C@@H](O)[C@@H]2CC3=C4CC(O)O[C@@H](c5ccoc5)[C@]4(C)CCC3[C@@]1(C)C2=O (some centres undefined) ?
// result 0.984

// query Also check "CC1(C)S[C@@H]2[C@H](NC(=O)[C@@H](N)c3ccc(O)cc3)C(=O)N2[C@H]1C(=O)O"
// result 0.996

====

Recorded normalized growth by entry
# TEST DETAILS: chemical genetic growth profiling, strain panel (AID 1159580);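 note: tested at 20 µM; growth read once vehicle control cultures reached saturation at 30 °C; 1 = growth at the plate median or of vehicle wells; lower values mean less growth of the strain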
# CONDITIONS: S. cerevisiae deletion strains, growth OD, locus YEL003W, strain gim4, active compounds read low
Hit rate of the full screen: of about 5,500 compounds, about 2,000 (36%) were called active. Roughly 18% stayed inconclusive and do not appear here. Some of the results follow.
Could you keep your reply to the number by itself?

Answered cases to consult:
C[C@H]1[C@H](C)CC[C@]2(C(=O)O)CC[C@]3(C)C(=CCC4[C@@]5(C)C[C@@H](O)[C@H](O)[C@@](C)(CO)C5CC[C@]43C)[C@H]12 (some centres not stated): 1.02
Oc1ccc2c3c1OC1[C@@H](O)CC[C@@]4(O)[C@@H](C2)N(CC2CCC2)CC[C@]314 (some centres not stated): 1
CC1=CC(=O)C(C(C)C)=CC1=O: 0.416
CC(=O)O[C@@H]1CC2C(C)(CC[C@H](O)C2(C)C)C2CC[C@]3(C)C(=CC(=O)O[C@H]3c3ccoc3)C21C (some centres not stated): 1.02
COC(=O)CC1C(C)(C)C(OC(C)=O)[C@@H]2[C@@H](OC(C)=O)[C@]34O[C@@]2(O)[C@]1(C)C3CC[C@]1(C)C4=CC(=O)O[C@H]1c1ccoc1 (some centres not stated): 1.01
CC1(C)C(O)CC(=O)C2(C)C1CC(O)C1(C)C2CCC2(C)C(c3ccoc3)OC(=O)C3OC321 (configuration not stated): 0.997

Continue with the next compound.
// query Form field: reported normalized growth of C[C@@H]1CC[C@@]23CCC4(C)[C@@](C=CC5[C@@]6(C)CCC(=O)C(C)(C)C6CC[C@]54C)(OC2=O)C3[C@H]1C (some centres not stated)
// result 1.01
